These measurements were taken from patent US20190225650A1.

Collected IC50 values appear next to each entry.
# testTarget: flag-tagged HIF1α (AA 786-826) / His6-tagged p300 (AA 323-423) complex (Homo sapiens, UniProt Q09472)
# Construct: His6-tagged p300 (AA 323-423); made in house; host or cells: E. coli (pETDuet vector)
# assayOverview: HIF1α p300 displacement assay (TR FRET, +CHAPS)
# Format: binding
# conditionParameters: read-out: IC50 (nM) (HIF1α_p300 Displacement + CHAPS)
# Procedure: The ability of peptides to displace HIF1α c-terminal trans-activation domain from p300-CH was measured by a TR FRET assay. […] The reaction was read on a TECAN F500 plate reader with settings recommended by CisBio. The ratio of donor to acceptor fluorescence was calculated. The resulting data was analyzed with Graphpad Prism 5.0. […]
Bridge positions count the residues as written; N and C are the ends. Square brackets hold non-standard residues; d marks the D form. Peptide text beside a SMILES is read from it. S5 = C=CCCC[C@](C)(N)C(=O)O; Nle = CCCC[C@H](N)C(=O)O
quantityName: IC50

- molecule: "CCCC[C@H](NC(=O)[C@H](CCC(=O)O)NC(=O)[C@@H](NC(=O)[C@@H](NC(=O)[C@H](C)NC(=O)[C@]1(C)CCCC=CCCC[C@](C)(NC(=O)[C@H](CCC(=O)O)NC(=O)[C@H](CC(=O)O)NC(=O)[C@@H](NC(=O)[C@H](Cc2ccccc2)NC(C)=O)[C@@H](C)CC)C(=O)N[C@@H](C(C)C)C(=O)N[C@@H](CC(C)C)C(=O)N[C@@H](CCCC)C(=O)N1)C(C)C)[C@@H](C)CC)C(=O)N[C@@H](C)C(=O)N[C@@H](CC(C)C)C(N)=O [SP-142] (Ac-FIDE[S5]VL[Nle][S5]AVIE[Nle]AL-NH2; staple 5-9)"
  endpointResult: "400 to 700 nM"
- molecule: "CCCC[C@H](NC(=O)[C@H](CCC(=O)O)NC(=O)[C@@H](NC(=O)[C@@H](NC(=O)[C@H](CC(C)C)NC(=O)[C@]1(C)CCCC=CCCC[C@](C)(NC(=O)[C@H](CCC(=O)O)NC(=O)[C@H](CC(=O)O)NC(=O)[C@@H](NC(=O)[C@H](Cc2ccccc2)NC(C)=O)[C@@H](C)CC)C(=O)N[C@@H](C(C)C)C(=O)N[C@@H](CC(C)C)C(=O)N[C@@H](CCCC)C(=O)N1)C(C)C)[C@@H](C)CC)C(=O)N[C@@H](C)C(=O)N[C@@H](CC(C)C)C(N)=O [SP-111] (Ac-FIDE[S5]VL[Nle][S5]LVIE[Nle]AL-NH2; staple 5-9)"
  endpointResult: "200 to 400 nM"

* * *

# maps each entry to its IC50
# testTarget: flag-tagged HIF1α (AA 786-826) / His6-tagged p300 (AA 323-423) complex (Homo sapiens)
# Construct: His6-tagged p300 (AA 323-423); made in house; host or cells: E. coli (pETDuet vector)
# assayOverview: HIF1α p300 displacement assay (TR FRET, +CHAPS)
# Type: binding
# conditionParameters: read-out: IC50 (nM) (HIF1α_p300 Displacement + CHAPS)
Bridge positions count the residues as written; N and C are the ends. Square brackets hold non-standard residues; d marks the D form. Peptide text beside a SMILES is read from it. S5 = C=CCCC[C@](C)(N)C(=O)O; Nle = CCCC[C@H](N)C(=O)O
quantityName: IC50

- compound: "CCCC[C@H](NC(=O)[C@H](CCCNC(=N)N)NC(=O)[C@@H](NC(=O)[C@@H](NC(=O)[C@H](CC(C)C)NC(=O)[C@]1(C)CCCC=CCCC[C@](C)(NC(=O)[C@H](CCC(=O)O)NC(=O)[C@H](CC(=O)O)NC(=O)[C@@H](NC(=O)[C@H](Cc2ccccc2)NC(C)=O)[C@@H](C)CC)C(=O)N[C@@H](C(C)C)C(=O)N[C@@H](CC(C)C)C(=O)N[C@@H](CCCC)C(=O)N1)C(C)C)[C@@H](C)CC)C(=O)N[C@@H](C)C(=O)N[C@@H](CC(C)C)C(N)=O [SP-157] (Ac-FIDE[S5]VL[Nle][S5]LVIR[Nle]AL-NH2; staple 5-9)"
  endpointResult: "> 700 nM"
- compound: "CC[C@H](C)[C@H](NC(=O)[C@H](Cc1ccccc1)NC(C)=O)C(=O)N[C@@H](CC(=O)O)C(=O)N[C@@H](CCC(=O)O)C(=O)N[C@@]1(C)CCCC=CCCC[C@@](C)(C(=O)N[C@@H](CC(C)C)C(=O)N[C@H](C(=O)N[C@H](C(=O)N[C@@H](CCC(=O)O)C(=O)N[C@@H](CCSC)C(=O)N[C@@H](C)C(=O)N[C@@H](C)C(=O)N[C@@H](C)C(N)=O)[C@@H](C)CC)C(C)C)NC(=O)[C@H](CCSC)NC(=O)[C@H](CC(C)C)NC(=O)[C@H](C(C)C)NC1=O [SP-117] (Ac-FIDE[S5]VLM[S5]LVIEMAAA-NH2; staple 5-9)"
  endpointResult: "> 700 nM"
